Task for the reader: assign each of the following sequences its reported pre-steady-state target cleavage rate.
- Test system: EfPiwi piRISC loaded with L1MC piRNA (26 nt)
- experiment-description: pre-steady-state target cleavage rate (min^-1); auxiliary factor: 500 nM Ephydatia muelleri Gtsf1; guide: L1MC piRNA 5'p-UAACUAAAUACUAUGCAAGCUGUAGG; higher = faster piRNA-guided slicing of the target
No unit in the answer, please; the number alone is enough.

The reported value for UCCUGGAUCAGCUUGCAUAGUAUGUUAGUUA in terms of pre-steady-state target cleavage rate is 0.031

Record summary for UCCUCCUACAGCAUGCAUAGUAUUUAGAUA : reported pre-steady-state target cleavage rate = 0.00452

# sequence UCCUGGUACAGCUUGCAUUGUAUUUAGAAA ; its pre-steady-state target cleavage rate = 0.00329

pre-steady-state target cleavage rate for UCCUGCUACAGGUUGCAAAGUAUUUAGUUA is 0.0385

The sequence listed as UCCUGGUAUCAGCUUGCAUAGUAUUUAGUUA has a reported pre-steady-state target cleavage rate of 0.0704

Entry UCCUGGAUGAGCUUGCGUAGUAUUUAGUUA , pre-steady-state target cleavage rate reported as 0.00425

pre-steady-state target cleavage rate for UCCUGCAUACAGCUUGCAUAGUAUUUAGUUA is 0.11

Entry UCCUGGAUCAGGUUGCAUAGUAUUUAGAAA ; pre-steady-state target cleavage rate = 0.00341

Per the records, this sequence ( UCCUGCAACAGCUUGCAUAGUUUUUAGUUA ) has pre-steady-state target cleavage rate equal to 0.00727

Field pre-steady-state target cleavage rate (entry UCCUGGAUGUCCUUGCCUAGUAUUUAGUUA ) reads 0.00345

Looking up UCCUGGAUGAGCUUGCUUAGUAUUUAGUUA , I see its pre-steady-state target cleavage rate listed as 0.00629

Field pre-steady-state target cleavage rate (entry UCCUGCAUGAGCUUGCAUAGUAUUUAGUUA ) reads 0.0163

Form field pre-steady-state target cleavage rate, entry UCCUCCUACAUGCUUGCAUAGUAUUUAGUUA : 0.00449

// recorded pre-steady-state target cleavage rate for UCCUCCUACAGCAUGCUUAGUAUUUAGUUA : 0.0116

Per the record, UCCUGGAACAGCUUGCAUAGUAUUUAGAUA has pre-steady-state target cleavage rate of 0.00437

The reported value for UCCUCACUACAGCUUGCAUAGUAUUUAGUUA in terms of pre-steady-state target cleavage rate is 0.0191

Briefly, pre-steady-state target cleavage rate measured for UCCUCCUGCAGCUUGCAUAGUAUUUAGUUA : 0.103

pre-steady-state target cleavage rate reported for this sequence UCCUGGAUCAGCUUGCAUAGUAUCUAGUUA : 0.0167

# pre-steady-state target cleavage rate of UCCUGGAUCAGGUUGCAUAGAAUUUAGUUA = 0.00305

Item: UCCUGGUACAGCUUGCUUAGUAAUUAGUUA | pre-steady-state target cleavage rate: 0.00675

# pre-steady-state target cleavage rate of UCCUGCUACAGCUUGCAAAGUAUAUAGUUA = 0.00379

In plain terms, UCCUGGAUCAGCUUGCAUAGUUUUUAGAUA has a documented pre-steady-state target cleavage rate of 0.00428

The recorded pre-steady-state target cleavage rate for entry UCCUGGAUCAGCAUGCUUAGUAUUUAGUUA equals 0.0112

The sequence identified as UCCUGCUACAGCUUGCAAAGUUUUUAGUUA registered its pre-steady-state target cleavage rate at 0.00207

Per the records, this sequence ( UCCUCCUACAGCUUGCAUACUAAUUAGUUA ) has pre-steady-state target cleavage rate equal to 0.00358

Field pre-steady-state target cleavage rate (entry UCCUGGAUCAGCUUGCAUACUAUUAAGUUA ) reads 0.00253

Value of measured pre-steady-state target cleavage rate for the entry UCCUGGUUCAGCUUGCAUAGUAAUUAGUUA : 0.0107

So, UCCUGGAUCAGCUUGCAUAGUAAUUUGUUA ? Its pre-steady-state target cleavage rate was 0.00366

----------
- Test system: MILI (PIWIL2) piRISC loaded with L1MC piRNA (26 nt);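 note: 1 nM active piRISC with 0.1 nM target library at 33 °C single turnover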
- experiment-description: pre-steady-state target cleavage rate (min^-1); guide: L1MC piRNA 5'p-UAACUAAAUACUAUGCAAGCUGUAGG; higher = faster piRNA-guided slicing of the target
- assay-conditions: auxiliary factor: 500 nM mouse GTSF1
Label rule not met if pre-steady-state target cleavage rate falls below 0.2; label rule met in every other case.

Tell me whether pre-steady-state target cleavage rate is at least 0.2 here: UCCUGCUACACGUUGCAUAGUAUUUACAAA
rule not met

Say whether UCCUGGAUCACGAUGCAUAGUAUUUAGUAA shows pre-steady-state target cleavage rate of 0.2 or more.
rule not met

Please tell me: is the sequence UCCUGGAUGAGCUUGCAUAGAAUAUAGUUA at or over 0.2 in terms of pre-steady-state target cleavage rate?
rule not met

pre-steady-state target cleavage rate >= 0.2 for UCCUGGAUGUCGUUGCAUACUAUUUAGUUA ?
rule not met

Could you verify whether the entry UCCUCCUACAGCUUGCAUAGUUUUUAGAAA shows pre-steady-state target cleavage rate of no less than 0.2?
rule not met

Hi team, for UCCUGGAUGUCCUUGCAUAGUAUUUAUGUUA , is the recorded pre-steady-state target cleavage rate at or above 0.2?
rule not met

Textbook exercise: given the entry UCCUGGAUCAGCUUGCAUAGUUAAAUCAAA [g10:g22:cont:t1A] , state whether its pre-steady-state target cleavage rate is greater than or equal to 0.2.
rule not met

Does pre-steady-state target cleavage rate meet or surpass 0.2 for UCCUCCUACACCUUGCAUUGUAUUUAGUUA ?
rule not met

Record UCCUCCUAGUCCUUGCAUAGUAUUUACAAA ; criterion: pre-steady-state target cleavage rate no lower than 0.2. Met?
rule not met

Threshold query (pre-steady-state target cleavage rate >= 0.2) on UCCUGGAACUGCUUGCAUAGAAUUUAGUUA
rule not met

Reported pre-steady-state target cleavage rate reaches at least 0.2 for UCCUCGUACAGCUUGCAUUGUAUUUAGUUA ?
rule met

Given UCCUGGAACAGCUUGCAUAGUAGUUUAGUUA , state whether its pre-steady-state target cleavage rate is at least 0.2.
rule not met

Does pre-steady-state target cleavage rate meet or surpass 0.2 for UCCUGGAUGAGCUUGCAUAGUAAUUAGUAA ?
rule met

----------
For each entry below, report its pre-steady-state target cleavage rate value.
- Tested on: EfPiwi piRISC loaded with piRNA #1 (26 nt)
- experiment-description: pre-steady-state target cleavage rate (min^-1); auxiliary factor: 500 nM Ephydatia muelleri Gtsf1; guide: piRNA #1 5'p-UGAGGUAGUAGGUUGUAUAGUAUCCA; higher = faster piRNA-guided slicing of the target
Could you keep your reply to the number by itself?

Memo: GGAGACCAUACUAUACAACCUACUUGCUCA , reported pre-steady-state target cleavage rate: 0.00354

Sure, the documented pre-steady-state target cleavage rate for GGAGACCUUACUAUACAACCUUCUACCUGA is 0.00341

Entry GGAGACCAUACUAUUACAACCUACUACCUCA , pre-steady-state target cleavage rate reported as 0.0115

Query GGAGACGAUACUUUACAACCUAGUACCUCA yields pre-steady-state target cleavage rate of 0.00252

Reported pre-steady-state target cleavage rate for GGAGUGGAAACUAUACAAGCUACUACCUCA was 0.00579

For GGAGACGAUACUAUAGAACCUACUUCCUCA the sequence record lists pre-steady-state target cleavage rate as 0.00251

Lab book: pre-steady-state target cleavage rate of GGAGACCAUACGAUACAACCUACUACCUCA noted as 0.00769

----------
- System: MILI (PIWIL2) piRISC loaded with L1MC piRNA (26 nt);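 note: 1 nM active piRISC with 0.1 nM target library at 33 °C single turnover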
- experiment-description: pre-steady-state target cleavage rate (min^-1); guide: L1MC piRNA 5'p-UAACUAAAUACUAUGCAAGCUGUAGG; MIWI and MILI are mouse PIWI proteins and EfPiwi is from a freshwater sponge; tags in brackets are library labels; higher = faster piRNA-guided slicing of the target
- assay-conditions: auxiliary factor: 500 nM mouse GTSF1
# thresholds on pre-steady-state target cleavage rate define classes: lower level: < 0.04; middle level: ≥ 0.04 and < 0.08; upper level: ≥ 0.08

Band for the recorded pre-steady-state target cleavage rate of UCCUGGAUGUCCUUGCAUAGUAUUAAGUAA ?
middle level

Class for UCCUGGAUGUCGAUGCAUAGUGUUUAGUUA ?
lower level

Hello team, could you let me know which band the following sequence falls into: UCCUGGAACAGCUUGCAUAGAUAUUAGUAA
lower level

The entry to classify is UCCUGGAUCAGCUUGCAUAGUAUAUUGUUA ; which class holds it?
upper level

Looking at UCCUCCAACUGCUUGCAUAGUAUUUAGUUA , which class would you pick?
upper level

Lab log: UCCUCCUACAGCUUGCAAAGUAUUUUCAAA — assign pre-steady-state target cleavage rate category
upper level

Which category does the recorded pre-steady-state target cleavage rate put UCCUGGUACAGGUUGCAUAGUAUUUACAAA in?
lower level

Pick a category. Item: UCCUCCUUGAGCUUGCAUAGUAUUUUCAAA
middle level

Please indicate the class for UCCUGGAACAGCUUGCAUAAUAUUUAGUUA based on its pre-steady-state target cleavage rate.
upper level

Returns: class label. Input: UCCUGGAACAGCAUGCAUAGUAUUUAGUAA
upper level

Field: class (pre-steady-state target cleavage rate) — entry: UCCUGCUACAGCUUGCUAUAGUAUUUAGUUA
middle level

Classify this sequence: UCCUGGAUCAGCUUGCAUAGUUAUUAGUUA
lower level
